# ASSAY_OVERVIEW: Rat blood PK, IV and oral
# Type: in vivo
# COND: Wistar, rat, whole blood, po, 10 mg/kg, Oral 10 mg kg-1, Rat 1
ASSAY_READOUT: Cmax (nM)
Unit nM implied. Number only.

Give the measured Cmax for Cc1nc(Nc2ncc(N3CCN(C)[C@H](C)C3)c(Nc3cc(C)n(C)n3)n2)cc(C2CC2)c1F
1710

====

# ASSAY_OVERVIEW: Dog plasma PK, IV and oral
# Format: in vivo
# COND: male, Beagle, dog, plasma, iv, 2.1 mg/kg, IV 2.1 mg kg-1, Mean; read-out: t½ (converted)
ASSAY_READOUT: half-life (h)
Numeric answer only, unit h assumed.

Identify the reported half-life for the following entry. Cc1nc(Nc2ncc(N3CCN(C)[C@H](C)C3)c(Nc3cc(C)n(C)n3)n2)cc(C2CC2)c1F [compound 12]
11

====

# ASSAY_OVERVIEW: Rat blood PK, IV and oral
# Type: in vivo
# COND: Wistar, rat, blood, iv, 2 mg/kg, Rat; read-out: Observed blood CL
ASSAY_READOUT: clearance

Supply reported clearance belonging to this compound: Cc1nc(Nc2ncc(N3CCN(C)[C@H](C)C3)c(Nc3cc(C)n(C)n3)n2)cc(C2CC2)c1F [compound 12]
5 to 13 mL/min/kg

====

# System: Dd2
# ASSAY_OVERVIEW: [3H]-hypoxanthine incorporation assay, Dd2
# Format: cell-based, Plasmodium falciparum
# COND: Plasmodium falciparum, DD2
The entries below are paired with their reported IC50.
I only need the number, in nM, no unit after it.

For orientation, consider the following solved cases.
MOLECULE	REPORTED_RESULT
Cc1nc(Nc2ncc(N3CCN(C)[C@H](C)C3)c(Nc3cc(C)n(C)n3)n2)cc(C2CC2)c1F [compound 12]	3.5
Cc1nc(Nc2ncc(N3CCNC(C)C3)c(Nc3cc(C)n(C)n3)n2)cc(C2CC2)c1F.Cl.Cl (stereo not drawn) [compound 9]	6

Turning now to a further record.
State its IC50 for this molecule: C[C@H]1Cc2c([nH]c3cc(Cl)c(F)cc23)[C@@]2(N1)C(=O)Nc1ccc(Cl)cc12 [NITD609, reference compound]
0.6

====

# ASSAY_OVERVIEW: Rat blood PK, IV and oral
# Assay type: in vivo
# COND: Wistar, rat, whole blood, po, 10 mg/kg, Oral 10 mg kg-1, Mean; read-out: F
ASSAY_READOUT: bioavailability (%)
# output: bare number, implied unit %

Please report bioavailability for the following compound: Cc1nc(Nc2ncc(N3CCN(C)[C@H](C)C3)c(Nc3cc(C)n(C)n3)n2)cc(C2CC2)c1F
90

====

# ASSAY_OVERVIEW: Dog plasma PK, IV and oral
# Format: in vivo
# COND: male, Beagle, dog, plasma, iv, 2.1 mg/kg, IV 2.1 mg kg-1, Mean
ASSAY_READOUT: AUC(0-inf) (µM·h)
Write down the numeric answer in µM·h and omit the unit.

Entry Cc1nc(Nc2ncc(N3CCN(C)[C@H](C)C3)c(Nc3cc(C)n(C)n3)n2)cc(C2CC2)c1F [compound 12] needs its AUC(0-inf) filled in; supply it.
3.1

====

# ASSAY_OVERVIEW: Dog plasma PK, IV and oral
# Assay type: in vivo
# COND: male, Beagle, dog, plasma, iv, 2.1 mg/kg, plasma, IV 2.1 mg kg-1, Dog 2; read-out: CL
ASSAY_READOUT: clearance (mL/min/kg)
Number only, in mL/min/kg; omit the unit.

Provide only the value of recorded clearance for Cc1nc(Nc2ncc(N3CCN(C)[C@H](C)C3)c(Nc3cc(C)n(C)n3)n2)cc(C2CC2)c1F [compound 12]
21.3
